B1: Far upstream element-binding protein 1, residues 184 to 257; numbered along this chain, Q96AE4 (parent)
chain: GNAVQEIMIPASKAGLVIGKGGETIKQLQERAGVKMVMIQDGPQNTGADKPLRITGDPYKVQQAKEMVLELIRD

# Variants of: B1
# test-name: abundance fitness (aPCA) (normalised: wild type 0, dead -1); higher = more abundant; growth selection in yeast, the domain comes from the species named
# condition-description: Homo sapiens

{"biosequence": "GNAVQEIMIPASKAGLVIGKGGETIKQLQERAGVKMVMIQDGPQNTGADKPLRITGDPYKVQQAKEMVDELIRD [L69D]", "abundance fitness": 0.016}
{"biosequence": "GNAVQEIMIPASKAGLVIGNGGETIKQLQERAGVKMVMIQDGPQNTGADKPLRITGDPYKVQQAKEMVLELIRD [K20N]", "abundance fitness": -0.016}
{"biosequence": "GNAVQEIMIPASKAGLVIGKGGETIKQLQERGGVKMVMIQDGPQNTGADKPLRITGDPYKVQQAKEMVLELIRD [A32G]", "abundance fitness": -0.075}
{"biosequence": "GNAVQEIMIPASKAGLVIGKGGETIKQLQERAGVKMVMIQDGPQNTGADKPLRITGDPYKVQQAKEMVLELSRD [I72S]", "abundance fitness": -0.301}
{"biosequence": "GNAVQEIMIPASKAGLVIGKGGETIKQLQGRAGVKMVMIQDGPQNTGADKPLRITGDPYKVQQAKEMVLELIRD [E30G]", "abundance fitness": -0.122}
{"biosequence": "GNAVQEIMIPASKAGLVIGKGGETIKQLQERAGVKMVMIQDGPQNTGADIPLRITGDPYKVQQAKEMVLELIRD [K50I]", "abundance fitness": -0.068}
{"biosequence": "GNAVQEIMIPASKAGLVIGKGGETIKQLQERAGVKMVMIQDGPQNTGADKPLQITGDPYKVQQAKEMVLELIRD [R53Q]", "abundance fitness": -0.009}
{"biosequence": "GNAVQEIMIPASKAGLVIGKGGETIKQLQERAGVKMVMIQDGPQNTGADKPLRITGDPYKVQQAWEMVLELIRD [K65W]", "abundance fitness": -0.439}
{"biosequence": "GNAVQEIMIPASKAGLVIGKGGETIKQLQERAGVKMVMIQDGPQNTGADKPLRITGDPYKVQQAKEMVLELIRF [D74F]", "abundance fitness": -0.311}
{"biosequence": "GNAVQEIMIPASKAGLVIGKGGETIKQLQERAGVKMVMIQDGPQNTGMDKPLRITGDPYKVQQAKEMVLELIRD [A48M]", "abundance fitness": 0.02}
{"biosequence": "GNAVQEIMIPASKAGLVIGKGGETIKQLQERAGVKMVMIQDGFQNTGADKPLRITGDPYKVQQAKEMVLELIRD [P43F]", "abundance fitness": -0.079}
{"biosequence": "GNAVQEIMIPASKAGLVIGKGGETIKQLQERAGPKMVMIQDGPQNTGADKPLRITGDPYKVQQAKEMVLELIRD [V34P]", "abundance fitness": -0.918}
{"biosequence": "GNAVQEIMIPASKAGLVIGKGGETIKQLQERAGVKMVMIQDGPQNTGADKPLRITGDPYKVQQAKEYVLELIRD [M67Y]", "abundance fitness": -0.088}
{"biosequence": "GNAVQEIMIPASKAGLVIGKGGETIKQLQERAGCKMVMIQDGPQNTGADKPLRITGDPYKVQQAKEMVLELIRD [V34C]", "abundance fitness": -0.086}
{"biosequence": "GNAVQEIMIPASKAGLVIGKGGETIKQLQERAGVKMVMIQDGPQNTGADKPLRITGDPYKVNQAKEMVLELIRD [Q62N]", "abundance fitness": -0.097}
{"biosequence": "GNAVQEIMIPASKAGLVIGKGGETIKQLQERAGVKMVMIQDGPQNTGAVKPLRITGDPYKVQQAKEMVLELIRD [D49V]", "abundance fitness": -0.068}
{"biosequence": "GNAVQEIMIPASKAGLVIGKGGETIKQLQERAGVKMVMIQDGPQNTGADKPLRITGDPYKCQQAKEMVLELIRD [V61C]", "abundance fitness": -0.062}
{"biosequence": "GNAVQEIMIPASKAGLVIGKGGETIKQLQERAGVKMVMIQDGPQNTGADKPVRITGDPYKVQQAKEMVLELIRD [L52V]", "abundance fitness": -0.145}
{"biosequence": "GNAVQEIMIPASKAGLVIGKGGETVKQLQERAGVKMVMIQDGPQNTGADKPLRITGDPYKVQQAKEMVLELIRD [I25V]", "abundance fitness": -0.125}
{"biosequence": "GNAVQEIMIPASKAGPVIGKGGETIKQLQERAGVKMVMIQDGPQNTGADKPLRITGDPYKVQQAKEMVLELIRD [L16P]", "abundance fitness": -0.581}
{"biosequence": "GNAVQEIMIPASKAGLVIGKGGETIKQLQERAGVKMVMIQDGPQNTGADKPLRITGDPFKVQQAKEMVLELIRD [Y59F]", "abundance fitness": -0.003}
{"biosequence": "GNAVQEIMIPASKAGLVIGKGGETIKQLQETAGVKMVMIQDGPQNTGADKPLRITGDPYKVQQAKEMVLELIRD [R31T]", "abundance fitness": -0.042}
{"biosequence": "GNAVQEIMIPASKAGLVIGKGGETIKQLQERAGVKMVMIQDGPQNTGADKPLRITGDPYKVQIAKEMVLELIRD [Q63I]", "abundance fitness": -0.025}
{"biosequence": "GNAVQEIMIPASKAGLVIGKGYETIKQLQERAGVKMVMIQDGPQNTGADKPLRITGDPYKVQQAKEMVLELIRD [G22Y]", "abundance fitness": -0.237}
{"biosequence": "GNAVQEIMIPASKAGLVIGKGGETIKQLQERAGVKMVMIQDPPQNTGADKPLRITGDPYKVQQAKEMVLELIRD [G42P]", "abundance fitness": -0.059}
{"biosequence": "GNAVQEIMIPRSKAGLVIGKGGETIKQLQERAGVKMVMIQDGPQNTGADKPLRITGDPYKVQQAKEMVLELIRD [A11R]", "abundance fitness": -0.1}
{"biosequence": "GNAVQEIMIPASKAGLVIGKGGETIKQLQERAGVKMVMIQDGPQNTGADKPDRITGDPYKVQQAKEMVLELIRD [L52D]", "abundance fitness": -0.702}
{"biosequence": "GNAVQEIMIPASKAGLVIGKGGETIKQLQERAGVKMVMIQDGPQNTGADKPLRITGDPYKVQQAMEMVLELIRD [K65M]", "abundance fitness": -0.07}
{"biosequence": "GNAVQEIMIPASKAGLVIGKGGETIKQLQERAGVKMVMIQDGPQNTGADKPLRITGDPYKVQQYKEMVLELIRD [A64Y]", "abundance fitness": -0.98}
{"biosequence": "GNAVQEIMIPASKAGLVIGKGGETIKQLQERAGVKMVMIQDGPQNTGADKPLRITGDPYKVQQAKRMVLELIRD [E66R]", "abundance fitness": -0.081}
{"biosequence": "GNAVQEIMIPASKAGLVIGKGGETIKQLQERAGVKMVMIQDGPQNTGADKPLRITGDPGKVQQAKEMVLELIRD [Y59G]", "abundance fitness": 0.029}
{"biosequence": "GNAVQEIMIPASKAGLVIGKGGETIKQLVERAGVKMVMIQDGPQNTGADKPLRITGDPYKVQQAKEMVLELIRD [Q29V]", "abundance fitness": -0.351}
{"biosequence": "GNAVQEIMIPASKAGLVIGKGGETIKQLQERAGVKMVMGQDGPQNTGADKPLRITGDPYKVQQAKEMVLELIRD [I39G]", "abundance fitness": -0.028}
{"biosequence": "GNAVQEIMIPASKAGLVIGKGGETIKQLQERAGVKMVMIQDGPQNTGADKPLRITGDPYKVQMAKEMVLELIRD [Q63M]", "abundance fitness": -0.026}
{"biosequence": "GNAVQEIMIPASKAGLVIGKGGETIKQLQERAGVKMVMIQDGYQNTGADKPLRITGDPYKVQQAKEMVLELIRD [P43Y]", "abundance fitness": -0.003}
{"biosequence": "GNAVQEIMIPASKAGLVIGKGGETIKQLQERAGVKMVMIQDGPQNTGADKPLRITGDPYKVQQAKEMVLEIIRD [L71I]", "abundance fitness": 0.025}
{"biosequence": "GNAVQEIMIPASKAGLVIGKGGETIKQLQERAGVKMVMIQDGPQNTGADKPLRITGDPYKVQQAKEMVLELWRD [I72W]", "abundance fitness": -0.353}
{"biosequence": "GNAVQEIMIPASKFGLVIGKGGETIKQLQERAGVKMVMIQDGPQNTGADKPLRITGDPYKVQQAKEMVLELIRD [A14F]", "abundance fitness": -0.022}
{"biosequence": "GNAVQEIMIPASKAGLVIGKGGETIKQLQERAGVKMVMIQDGPQNTGADKPLRITGDPYKVQQAKEMVLECIRD [L71C]", "abundance fitness": -0.048}
{"biosequence": "GNAVQEIMIPASKAGLVIGKGGETIKQLQERAGVSMVMIQDGPQNTGADKPLRITGDPYKVQQAKEMVLELIRD [K35S]", "abundance fitness": -0.116}
{"biosequence": "GNAVQEIMIPASKAGLVIGKGGCTIKQLQERAGVKMVMIQDGPQNTGADKPLRITGDPYKVQQAKEMVLELIRD [E23C]", "abundance fitness": -0.011}
{"biosequence": "GNAVQEIMIPASKAGLVIGKGGITIKQLQERAGVKMVMIQDGPQNTGADKPLRITGDPYKVQQAKEMVLELIRD [E23I]", "abundance fitness": -0.051}
{"biosequence": "GNAVQEIMIPASKAGLVIGKGGETIKQLQERAGVKMVMIQDGPQNTGADKPLRITGDPYKVQQAKEMVLELILD [R73L]", "abundance fitness": -0.1}
{"biosequence": "GNAVQEIMIPASKAGLVIGKGGETIKQLQERAGVKMVMIQDGPQNTGADKPLRITGDPYKVQQAKEAVLELIRD [M67A]", "abundance fitness": -0.03}
{"biosequence": "GNAVQEIMIPASKAYLVIGKGGETIKQLQERAGVKMVMIQDGPQNTGADKPLRITGDPYKVQQAKEMVLELIRD [G15Y]", "abundance fitness": -0.035}
{"biosequence": "GNAVQEIMIPASKAGLVIGKGGETIKQLQERAGVKMVMIQDGPQNHGADKPLRITGDPYKVQQAKEMVLELIRD [T46H]", "abundance fitness": -0.055}
{"biosequence": "GNAVQEIMIPASKAGLVIGKGGETIKQLQERAGVKMVHIQDGPQNTGADKPLRITGDPYKVQQAKEMVLELIRD [M38H]", "abundance fitness": -0.13}
{"biosequence": "GNAVQEIMIPASKAGLVIGKGGHTIKQLQERAGVKMVMIQDGPQNTGADKPLRITGDPYKVQQAKEMVLELIRD [E23H]", "abundance fitness": 0.072}
